Assign remaining at 10 min to each entry below.
Test: Metabolic stability in rat liver microsomes assessed as parent compound remaining after 10 mins
Type: ADME, microsome
Settings: read-out: Stability
Give just the number in %; leave the unit off.

## Input Respond only with remaining at 10 min recorded for `COc1cnc(-n2ccc(N)n2)c2[nH]cc(C(=O)C(=O)N3CCN(C(=O)c4ccccc4)CC3)c12`
## Output 99

## Input Respond only with remaining at 10 min recorded for `COc1cnc(-n2cc(F)cn2)c2[nH]cc(C(=O)C(=O)N3CCN(C(=O)c4ccccc4)CC3)c12`
## Output 83

## Input Respond only with remaining at 10 min recorded for `COc1cnc(-n2ccc(C)n2)c2[nH]cc(C(=O)C(=O)N3CCN(C(=O)c4ccccc4)[C@H](C)C3)c12`
## Output 78

## Input Respond only with remaining at 10 min recorded for `CCN(CC)CCNc1ncn(-c2ncc(OC)c3c(C(=O)C(=O)N4CCN(C(=O)c5ccccc5)CC4)c[nH]c23)n1`
## Output 100

## Input Respond only with remaining at 10 min recorded for `CCc1ncn(-c2ncc(OC)c3c(C(=O)C(=O)N4CCN(C(=O)c5ccccc5)CC4)c[nH]c23)n1`
## Output 94

## Input Respond only with remaining at 10 min recorded for `COc1cnc(-n2nccc2N)c2[nH]cc(C(=O)C(=O)N3CCN(C(=O)c4ccccc4)[C@H](C)C3)c12`
## Output 85

## Input Respond only with remaining at 10 min recorded for `COc1cnc(-n2ccnn2)c2[nH]cc(C(=O)C(=O)N3CCN(C(=O)c4ccccc4)[C@H](C)C3)c12`
## Output 78

## Input Respond only with remaining at 10 min recorded for `CCNC(=O)c1ncn(-c2ncc(OC)c3c(C(=O)C(=O)N4CCN(C(=O)c5ccccc5)CC4)c[nH]c23)n1`
## Output 100

---

Assign half-life to each entry below.
Assay: Half life in human liver microsomes
Type: ADME, microsome
Give just the number in min; leave the unit off.

## Input Respond only with half-life recorded for `COc1cnc(-c2ncco2)c2[nH]cc(C(=O)C(=O)N3CCN(C(=O)c4ccccc4)CC3)c12`
## Output 37

## Input Respond only with half-life recorded for `COc1cnc(-c2ncccn2)c2[nH]cc(C(=O)C(=O)N3CCN(C(=O)c4ccccc4)CC3)c12`
## Output 32

## Input Respond only with half-life recorded for `COc1cnc(-c2cccc(N)n2)c2[nH]cc(C(=O)C(=O)N3CCN(C(=O)c4ccccc4)CC3)c12`
## Output 13

## Input Respond only with half-life recorded for `COc1cnc(-c2ccnnc2)c2[nH]cc(C(=O)C(=O)N3CCN(C(=O)c4ccccc4)CC3)c12`
## Output 48

## Input Respond only with half-life recorded for `COc1cnc(-c2nccs2)c2[nH]cc(C(=O)C(=O)N3CCN(C(=O)c4ccccc4)CC3)c12`
## Output 17

## Input Respond only with half-life recorded for `COc1cnc(-c2cscn2)c2[nH]cc(C(=O)C(=O)N3CCN(C(=O)c4ccccc4)CC3)c12`
## Output 39

---

Assay: Half life in Sprague-Dawley rat at 1 mg/kg, iv
Format: ADME, organism-based
Settings: in vivo
Entry flag: 1 if half-life reaches 2 h; -1 if it does not.

## Input Check if half-life >= 2 h (inclusive). Item: `COc1cnc(-n2cnc(C)n2)c2[nH]cc(C(=O)C(=O)N3CCN(C(=O)c4ccccc4)[C@H](C)C3)c12`
## Output 1

## Input Check if half-life >= 2 h (inclusive). Item: `COc1cnc(-n2cncn2)c2[nH]cc(C(=O)C(=O)N3CCN(C(=O)c4ccccc4)CC3)c12`
## Output 1

## Input Check if half-life >= 2 h (inclusive). Item: `COc1cnc(-c2cnccn2)c2[nH]cc(C(=O)C(=O)N3CCN(C(=O)c4ccccn4)CC3)c12`
## Output 1

## Input Check if half-life >= 2 h (inclusive). Item: `COc1cnc(-n2ccnn2)c2[nH]cc(C(=O)C(=O)N3CCN(C(=O)c4ccccc4)[C@H](C)C3)c12`
## Output -1

## Input Check if half-life >= 2 h (inclusive). Item: `CCc1ncn(-c2ncc(OC)c3c(C(=O)C(=O)N4CCN(C(=O)c5ccccc5)[C@H](C)C4)c[nH]c23)n1`
## Output 1

## Input Check if half-life >= 2 h (inclusive). Item: `COc1cnc(-c2cncc(=O)[nH]2)c2[nH]cc(C(=O)C(=O)N3CCN(C(=O)c4ccccc4)CC3)c12`
## Output -1

## Input Check if half-life >= 2 h (inclusive). Item: `COc1cnc(-n2ccc(N)n2)c2[nH]cc(C(=O)C(=O)N3CCN(C(=O)c4ccccc4)CC3)c12`
## Output -1

## Input Check if half-life >= 2 h (inclusive). Item: `COc1cnc(-n2ccnn2)c2[nH]cc(C(=O)C(=O)N3CCN(C(=O)c4ccccc4)CC3)c12`
## Output -1
